Target: Peripheral plasma membrane protein CASK (Homo sapiens)
Sequence (whole entry): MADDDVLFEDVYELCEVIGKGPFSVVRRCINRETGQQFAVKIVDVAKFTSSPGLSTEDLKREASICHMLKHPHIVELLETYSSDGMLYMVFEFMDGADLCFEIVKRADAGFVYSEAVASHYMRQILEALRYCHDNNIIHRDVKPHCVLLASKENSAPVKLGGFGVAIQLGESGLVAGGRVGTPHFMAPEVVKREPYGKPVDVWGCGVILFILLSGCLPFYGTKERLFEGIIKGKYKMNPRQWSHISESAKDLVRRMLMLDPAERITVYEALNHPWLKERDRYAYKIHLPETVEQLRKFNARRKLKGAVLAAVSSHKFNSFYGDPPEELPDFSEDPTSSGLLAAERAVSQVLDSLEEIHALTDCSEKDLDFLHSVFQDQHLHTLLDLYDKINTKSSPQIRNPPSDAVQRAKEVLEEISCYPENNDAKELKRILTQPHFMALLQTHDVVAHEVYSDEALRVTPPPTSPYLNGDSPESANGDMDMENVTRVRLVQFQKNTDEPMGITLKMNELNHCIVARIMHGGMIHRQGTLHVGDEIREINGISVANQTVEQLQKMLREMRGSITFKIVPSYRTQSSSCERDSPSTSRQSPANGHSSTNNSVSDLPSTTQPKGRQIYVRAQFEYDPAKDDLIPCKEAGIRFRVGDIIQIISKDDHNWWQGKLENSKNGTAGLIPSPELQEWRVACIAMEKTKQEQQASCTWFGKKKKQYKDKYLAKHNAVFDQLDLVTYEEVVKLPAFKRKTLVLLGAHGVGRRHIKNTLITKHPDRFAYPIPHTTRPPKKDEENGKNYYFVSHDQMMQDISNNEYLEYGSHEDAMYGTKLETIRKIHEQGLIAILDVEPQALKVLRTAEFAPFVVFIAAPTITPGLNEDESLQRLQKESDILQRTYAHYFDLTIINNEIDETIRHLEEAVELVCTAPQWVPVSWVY
ATTRIBUTE_MEASURED: deltaTm (K)
Write it as a number; the unit K goes unstated.

Below: 3 compounds and their reported deltaTm.
{"columns": ["ENTRY_SMILES", "deltaTm (K)"],
 "data": [
  ["O=C(NCCCN1CCCC1=O)c1cnc(NCc2ccccc2Br)nc1NC1CCCC1", 4.8],
  ["Cc1ccc(CNc2ncc(C(=O)NCCCN3CCOC3=O)c(NC3CCCCC3)n2)c(Br)c1", 6],
  ["O=C(NCCCN1CCCC1=O)c1cnc(NCc2ccc(Br)cc2)nc1NC1CCCC1", 1.2]
]}

input: Please indicate deltaTm recorded for O=C(NCCCN1CCOC1=O)c1cnc(NCc2cc(Br)ccc2Br)nc1NC1CCCC1
output: 5.1

input: Please indicate deltaTm recorded for O=C(NCCCN1CCCC1=O)c1cnc(NCc2cc(Cl)ccc2Cl)nc1Nc1ccccc1
output: 1.4

input: Please indicate deltaTm recorded for O=C(NCCCN1CCCC1=O)c1cnc(NCc2cc(Cl)ccc2Cl)nc1NC1CCCCC1
output: 5.7
